The reader will find reported Potency values listed item by item below.
Target: Glucocorticoid receptor (Homo sapiens) (UniProt P04150)
Sequence (P04150 whole entry, looked up): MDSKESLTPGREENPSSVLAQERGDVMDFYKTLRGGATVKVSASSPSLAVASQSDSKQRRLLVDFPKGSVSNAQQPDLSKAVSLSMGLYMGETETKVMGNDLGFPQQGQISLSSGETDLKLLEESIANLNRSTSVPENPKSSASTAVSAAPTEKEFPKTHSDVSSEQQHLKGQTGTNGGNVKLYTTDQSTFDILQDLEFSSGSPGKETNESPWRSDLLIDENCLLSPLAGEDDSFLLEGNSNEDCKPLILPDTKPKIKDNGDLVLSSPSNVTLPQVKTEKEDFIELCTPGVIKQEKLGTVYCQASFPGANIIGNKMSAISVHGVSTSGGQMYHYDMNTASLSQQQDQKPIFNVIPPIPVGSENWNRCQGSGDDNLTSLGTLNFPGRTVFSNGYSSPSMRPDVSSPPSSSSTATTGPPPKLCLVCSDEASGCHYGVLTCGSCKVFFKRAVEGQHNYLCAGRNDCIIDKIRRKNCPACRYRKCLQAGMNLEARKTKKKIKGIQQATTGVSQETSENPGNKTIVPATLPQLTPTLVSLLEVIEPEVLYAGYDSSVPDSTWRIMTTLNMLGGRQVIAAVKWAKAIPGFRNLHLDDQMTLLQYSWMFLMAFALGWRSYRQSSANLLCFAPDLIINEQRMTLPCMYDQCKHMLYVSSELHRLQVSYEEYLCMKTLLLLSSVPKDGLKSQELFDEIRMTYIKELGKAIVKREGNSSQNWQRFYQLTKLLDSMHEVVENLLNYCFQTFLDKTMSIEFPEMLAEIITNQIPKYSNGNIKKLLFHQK
Assay: GR-GFP Redistribution (AID 450); also: potency is read from the fitted curve at half-maximal effect
Conditions: U2OS GR-GFP nuclear translocation, laser cytometry, 2 h
The source made the active and inactive calls.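 The calls were made as follows: active = compounds whose dose series gives a full or clear partial fitted curve of increased nuclear translocation; inconclusive = weak partial curve or effect only at the top dose; inactive = no dose-dependent translocation response.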

These solved cases illustrate the format of a correct answer.
c1ccc2c(c1)[I+]c1ccccc1-2 :: > 46 µM (inactive)
O=[N+]([O-])c1cc(O)c(O)c([N+](=O)[O-])c1 :: > 46 µM (inactive)
NCCc1ccc(S(=O)(=O)F)cc1 :: > 46 µM (inactive)

Consider the compound shown here: CN1CCc2cccc(Cl)c2CC1 What is its recorded Potency?
> 46 µM (inactive)

Consider the compound shown here: CCCN(CCC)CCc1c[nH]c2ccc(C(N)=O)cc12 What is its recorded Potency?
> 46 µM (inactive)

Consider the compound shown here: C[N+]1(C)CCc2cc3c(cc2[C@H]1[C@@H]1OC(=O)c2c1ccc1c2OCO1)OCO3 What is its recorded Potency?
> 20.6 µM (inactive)

* * *

Experiment: Quantitative high throughput screen for delayed death inhibitors of the malarial parasite plastid, 48 hour incubation (AID 488752); also: nearly all actives have a fitted effect of over 65% in size
Settings: Plasmodium falciparum growth; series mostly up to 28.7 µM
Inconclusive results are not listed. Activity calls are given as the source filed them. Calls follow the shape of the dose curve; as a rule, active = well fitted inhibition curve with a large enough effect; inconclusive = small, poorly fitted or top-dose-only effect, or effect the other way; inactive = flat fitted curve, though single readings scatter.
Tick one outcome: active, inactive

Some entries whose results are on file:
CCCN(CCC)CCc1c[nH]c2ccc(C(N)=O)cc12 :: inactive
CCCn1c(=O)c2[nH]c(C3CCCC3)nc2n(CCCOC(=O)c2ccc(S(=O)(=O)F)cc2)c1=O :: inactive
Cc1c2ccncc2c(C)c2c1[nH]c1ccccc12 :: active
CC(Cc1ccc(OCC(=O)O)cc1)NCC(O)c1cccc(Cl)c1 (stereo unspecified) :: inactive
O=C(O)c1cc[c]([Hg][Cl])cc1 :: active

Please find the next compound below.
How was C[C@H](Cc1ccc2c(c1)OC(C(=O)O)(C(=O)O)O2)NC[C@H](O)c1cccc(Cl)c1 classified in this test?
inactive

* * *

Assay: Cell Viability - LYMP2-017 (AID 972);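 also: cells exposed to compound for 24 hours at 37 °C; nearly all actives have a fitted effect of over 55% in size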; also: potency is read from the fitted curve at half-maximal effect
Conditions: LYMP2-017 lymphoblastoid cell viability; series mostly up to 92.2 µM
Inconclusive results are not listed. Calls of active or inactive are those of the source. Calls follow the shape of the dose curve; as a rule, active = well fitted cell-killing curve with a large enough effect; inconclusive = small, poorly fitted or top-dose-only effect; inactive = flat fitted curve, though single readings scatter.
measured.metric: Potency

These solved cases illustrate the format of a correct answer.
C[C@H]1CCC[C@H](O)CCCCCc2cc(O)cc(O)c2C(=O)O1 :: inactive
CC(C)Nc1ccc(Nc2ccccc2)cc1 :: 25.1 µM (active)
[O]=[Cr](=[O])([OH])[O][Cr](=[O])(=[O])[OH] :: 12.6 µM (active)
CCOC(=O)c1ccccc1C(=O)OCC :: inactive
O=[N+]([O-])c1ccccc1 :: inactive
CCCCCCCCOC(=O)c1ccccc1C(=O)OCCCCCCCC :: inactive
ClCC1CO1 (centres undefined) :: inactive
COC1=CC(=O)O[C@@H](/C=C/c2ccccc2)C1 :: inactive

Note: attention shifts to another entry.
Consider the compound shown here: NNC(N)=O What is its recorded Potency?
inactive

* * *

Assay: qHTS Assay for Lipid Storage Modulators (AID 1519)
Settings: Drosophila S3 cells, BODIPY lipid droplet/cell ratio, laser cytometry; measured here: lipid channel max response; cells loaded with oleic acid
Inconclusive results are not listed.
The reader will find reported max response values listed item by item below.
Value expressed in %; do not type the unit.

CCCN(CCC)C1CCc2cccc(O)c2C1 (stereo not drawn) :: -33.3
NC(=O)c1ccc(OCC(O)CN2CC=C(c3ccc(F)cc3)CC2)cc1 (stereo not drawn) :: -42.5
C[N+](C)(C)CC#CCN1CCCC1=O :: 8.27
C=CCN1C[C@@H](C)N([C@H](c2ccc(C(=O)N(CC)CC)cc2)c2cccc(OC)c2)C[C@@H]1C :: 0
C[N+]1(C)CCN(c2ccccc2)CC1 :: -16.2
C[C@@H](Cc1ccccc1)NCCC(c1ccccc1)c1ccccc1 :: -23.1
CC(C)CC(NP(=O)(O)O[C@@H]1O[C@@H](C)[C@H](O)[C@@H](O)[C@H]1O)C(=O)NC(Cc1c[nH]c2ccccc12)C(=O)O (stereo partly drawn) :: 29.8
NC(N)=Nc1ccc2[nH]c3c(c2c1)C[C@@]1(O)[C@H]2Cc4ccc(O)c5c4[C@@]1(CCN2CC1CC1)[C@H]3O5 :: -6.88

Note: attention shifts to another entry.
Consider the compound shown here: CC(N)[C@H](O)c1ccc(O)c(O)c1 (stereo partly drawn) What is its recorded max response?
2.21

* * *

Biological target: Muscarinic acetylcholine receptor M1 (Rattus norvegicus) (UniProt P08482)
Sequence (P08482 whole entry, looked up): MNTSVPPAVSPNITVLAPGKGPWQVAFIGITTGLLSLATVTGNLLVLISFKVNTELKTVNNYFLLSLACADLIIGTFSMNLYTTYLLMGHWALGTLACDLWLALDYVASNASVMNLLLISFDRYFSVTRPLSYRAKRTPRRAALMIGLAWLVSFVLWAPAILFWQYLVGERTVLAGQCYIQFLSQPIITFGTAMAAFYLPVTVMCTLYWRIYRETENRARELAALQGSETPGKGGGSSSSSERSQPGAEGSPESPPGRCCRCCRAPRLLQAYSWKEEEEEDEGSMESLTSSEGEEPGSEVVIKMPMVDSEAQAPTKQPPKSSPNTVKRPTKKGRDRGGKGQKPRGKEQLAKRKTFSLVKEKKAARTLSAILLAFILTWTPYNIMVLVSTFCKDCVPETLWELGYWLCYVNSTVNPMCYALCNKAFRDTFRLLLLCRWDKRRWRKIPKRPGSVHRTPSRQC
Test: qHTS Assay for Antagonists of Acetylcholine Muscarinic M1 Receptor: Measurement of IP-One Response (AID 944); also: nearly all actives have a fitted effect of over 75% in size
Conditions: CHO-M1 cells, IP-One HTRF, antagonist mode; series mostly up to 46.1 µM
Inconclusive results are not listed. Activity calls are given as the source filed them. Calls follow the shape of the dose curve; as a rule, active = well fitted inhibition curve with a large enough effect; inconclusive = small, poorly fitted or top-dose-only effect; inactive = no such curve, though single readings can be large or run the other way.
Tick one outcome: active, inactive

Some entries whose results are on file:
NCCc1c[nH]c2ccc(C(N)=O)cc12 :: inactive
Cc1[nH]c2ccc(O)cc2c1CCN :: inactive
CCS(=O)(=O)Nc1cccc(C(=C2CCCCC2)c2cnc[nH]2)c1 :: inactive
OCc1cnc[nH]1 :: inactive
CNC(=O)OCC[N+](C)(C)C :: inactive
O=[N+]([O-])c1ccc2nc(N3CCNCC3)ccc2c1 :: inactive

How was Clc1cc(I)cc(Cl)c1NC1=NCCN1 classified in this test?
inactive

How was CN(N=O)c1cc(O)ccc1O classified in this test?
inactive

How was CCCN(CCC)[C@H]1CCc2c(F)ccc(O)c2C1 classified in this test?
active

How was C[C@@H]1[C@@H]2Cc3ccc(O)cc3[C@@]1(C)CCN2CC1CC1 classified in this test?
active

How was NC(N)=NOCC[C@H](N)C(=O)O classified in this test?
inactive

* * *

Assay: Natriuretic polypeptide receptor (hNpr1) antagonism - Pilot counterscreen GloSensor control cell line (AID 1347045); also: % is scaled to controls: 0 for no effect and ±100 for the full control effect
Conditions: HEK293 cGMP GloSensor cells, SNP-stimulated luminescence, 20 min; series mostly up to 38.3 µM
Inconclusive results are not listed. Calls of active or inactive are those of the source. The call rests on the fitted dose curve.
measured.metric: outcome

These solved cases illustrate the format of a correct answer.
C[Se]C[C@H](N)C(=O)O :: inactive
CN1CC[C@@]2(C)c3cc(OC(=O)Nc4ccccc4)ccc3N(C)[C@@H]12 :: inactive
C[C@@H]1O[C@H](C[N+](C)(C)C)CS1 :: inactive
CCOC(=O)c1ncn2c1[C@@H]1CCCN1C(=O)c1cc(OC)ccc1-2 :: inactive
Cc1c2ccncc2c(C)c2c1[nH]c1ccccc12 :: inactive

Consider the compound shown here: N[C@@H](Cn1ccc(=O)[nH]c1=O)C(=O)O What is its recorded outcome?
inactive

Consider the compound shown here: c1ccc2c(N3CCNCC3)cccc2c1 What is its recorded outcome?
inactive

Consider the compound shown here: NC(=O)CI What is its recorded outcome?
inactive

Consider the compound shown here: C[C@H](N)CN1CCc2ccc(Br)cc21 What is its recorded outcome?
inactive

Consider the compound shown here: Cc1sc2ccccc2c1CC1=NCCN1 What is its recorded outcome?
inactive

Consider the compound shown here: C[C@@H]1[C@@H]2Cc3ccc(O)cc3[C@@]1(C)CCN2CC1CC1 What is its recorded outcome?
inactive

Consider the compound shown here: NCCc1ccc(S(=O)(=O)F)cc1 What is its recorded outcome?
inactive

Consider the compound shown here: CCCN1CCc2cccc3c2[C@H]1Cc1ccc(O)c(O)c1-3 What is its recorded outcome?
inactive

Consider the compound shown here: CC(N)Cc1c[nH]c2ccc(O)cc12 (centres undefined) What is its recorded outcome?
inactive

* * *

Experiment: Drug repurposing screens with cells derived from glioblastoma tumor samples (AID 1345199); also: potency is read from the fitted curve at half-maximal effect; nearly all actives have a fitted effect of over 40% in size
Conditions: GBM patient neurospheres viability, ATP luminescence, 48 h; tumour line A
Protocol: CD133+ cells were isolated from GBM patient biopsies and cultured as neurospheres. Neurospheres from four patients were used to screen the NCATS pharmaceutical collection (NPC) library of approved drugs and bioactive compounds. […] The neurospheres were incubated with drugs for 48 hours in 1536-well format, then assayed with an ATP content cell viability assay. […]
Inconclusive results are not listed. Activity calls are given as the source filed them. Calls come from the whole dose curve; as a rule, active = well fitted inhibition curve with a large enough effect; inconclusive = small, poorly fitted or top-dose-only effect; inactive = flat fitted curve, though single readings scatter.
measured.metric: Potency

These solved cases illustrate the format of a correct answer.
ClC1=C(Cl)[C@]2(Cl)[C@@H]3[C@H]4C[C@H]([C@@H]5O[C@H]45)[C@@H]3[C@@]1(Cl)C2(Cl)Cl :: 11.2 µM (active)
C[C@]12C[C@H]3S[C@H]3C[C@@H]1CC[C@@H]1[C@@H]2CC[C@]2(C)[C@@H](O)CC[C@@H]12 :: 14.1 µM (active)
CN(C)[C@H](Cc1ccccc1)c1ccccc1 :: 20 µM (active)
CC(C)Nc1ccc(Nc2ccccc2)cc1 :: 11.2 µM (active)

Consider the compound shown here: OC(c1ccccc1)(c1ccccc1)C1CN2CCC1CC2 (stereo not given) What is its recorded Potency?
12.6 µM (active)

* * *

System: CASKI
Experiment: Primary qHTS to identify gynecologic anti-cancer compounds using libraries of approved drugs and bioactive compounds (AID 1345084); also: potency is read from the fitted curve at half-maximal effect; nearly all actives have a fitted effect of over 55% in size
Conditions: Gynecologic cancer cell panel viability, ATPlite luminescence, 48 h; series mostly up to 57.5 µM
Inconclusive results are not listed. The source made the active and inactive calls. Calls follow the shape of the dose curve; as a rule, active = well fitted cell-killing curve with a large enough effect; inconclusive = small, poorly fitted or top-dose-only effect, or effect the other way; inactive = flat fitted curve, though single readings scatter.
measured.metric: Potency

These solved cases illustrate the format of a correct answer.
CO[C@@H]1[C@H](O)[C@@H](O[C@@H]2C[C@H]3CC[C@@H]4C(CC[C@]5(C)[C@@H](C6=CC(=O)OC6)CC[C@]45O)[C@@]3(C)[C@H](O)C2)O[C@H](C)[C@@H]1O[C@@H]1O[C@H](CO)[C@@H](O)[C@H](O)[C@H]1O (some centres undefined) :: 1.26 µM (active)
COC1CC(OC2CCC3(C=O)C(CCC4C3CCC3(C)C(C5=CC(=O)OC5)CCC43O)C2)OC(C)C1OC1OC(CO)C(O)C(O)C1O (centres undefined) :: 1.12 µM (active)
CO[C@H]1[C@H](O)[C@H](O[C@H]2CC[C@]3(C)C4CC[C@]5(C)[C@H](C6=CC(=O)OC6)CC[C@]5(O)C4CC[C@@H]3C2)O[C@@H](C)[C@@H]1O (some centres undefined) :: 0.224 µM (active)

Consider the compound shown here: CC12CCC3C(CCC4(O)CC(O)CCC34C=O)C1(O)CCC2C1=CC(=O)OC1 (centres undefined) What is its recorded Potency?
7.08 µM (active)
